This collection of values is drawn from PubChem BioAssay (NCI).

- Tested on: BT-549 breast
- assay-procedure: NCI tumour cell line growth inhibition, 48 h; in the data active = GI50 below about 0.43 µM; inactive = the rest
Mark one answer only. Choices: active, inactive

{"mol-smiles": "C=CCN(C)S(=O)(=O)/N=C1\\NC(=O)NC1=C(Cl)Cl", "assigned-category": "inactive"}
{"mol-smiles": "COc1ccc([C@@H]2C(=O)N(c3cc(OC)c(OC)c(OC)c3)[C@H]2c2ccc(OC)c(O)c2)cc1", "assigned-category": "active"}
{"mol-smiles": "O=C(CCC(=O)N1CCOCC1)OCCCCCCSc1ccc([N+](=O)[O-])c2nonc12", "assigned-category": "inactive"}

Task: Tell me the recorded outcome of this test for `CNC(=O)c1c(NC(=O)c2cccc(C(F)(F)F)c2F)sc2c1CCC(=O)C2` .
Output: active

---

- Test system: SN12C renal
- assay-procedure: NCI tumour cell line growth inhibition, 48 h; in the data active = GI50 below about 0.43 µM; inactive = the rest
*1 amine or outer side, *2 acyl side, *3 side chain or, on linkers, in order; H or OH if unused. Where a SMILES comes first, the peptide text is derived from it. [ ]: non-standard residue; d: D form. The star is where a group is joined. X11 = C/C=C/CC(C)C(O)[C@H](N[*:1])C(=O)[*:2]; Leu(ol) = CC(C)C[C@H](N)CO; Iva = CC[C@](C)(N)C(=O)O; Octanoyl = CCCCCCCC(=O)*; Aib = CC(C)(N)C(=O)O
Mark one answer only. Choices: 1.0 for active, 0.0 for inactive

{"molecule": "C/C=C/CC(C)C(O)[C@H](NC(=O)[C@@H]1CCCN1C(=O)C(C)(C)NC(=O)CCCCCCC)C(=O)N[C@@](C)(CC)C(=O)N[C@@H](CCC(N)=O)C(=O)N[C@H](CCC(N)=O)C(=O)NC(C)(C)C(=O)NC(C)(C)C(=O)N[C@@H](CCC(N)=O)C(=O)N[C@H](CC(C)C)C(=O)N[C@H](CO)CC(C)C (stereo partly drawn) (Octanoyl-[Aib]P[X11][Iva]Q[dQ][Aib][Aib]Q[dL][Leu(ol)])", "assigned-category": 0.0}
{"molecule": "O=C(CCC(=O)N1CCOCC1)OCCCCCCSc1ccc([N+](=O)[O-])c2nonc12", "assigned-category": 0.0}
{"molecule": "COc1ccc([C@@H]2C(=O)N(c3cc(OC)c(OC)c(OC)c3)[C@H]2c2ccc(OC)c(O)c2)cc1", "assigned-category": 1.0}

--- query ---
Task: Tell me the recorded outcome of this test for `C=CCN(C)S(=O)(=O)/N=C1\NC(=O)NC1=C(Cl)Cl` .
Output: 0.0
